Data credit: the supplement of paper PMC10567573

B1: ZNF263 (parent)
chain: RTHTGEKPYKCTLCGENFSHRSNL

Variants of: B1
Test: protein stability index of a GFP-peptide fusion (GPS, HEK-293T) (PSI 1-6); higher = more stable;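 further: lentivirally expressed fusions sorted by FACS into six bins by GFP to DsRed ratio, PSI derived from sequencing read proportions per bin multiplied by bin number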
Settings: c terminus: a fixed tail appended
Recorded Endpoint: protein stability index
Give the figure by itself; no unit, no explanation.

Look over these answered cases.
> print(dat)
   mutation.spec  value
1           L24F   1.59
2           S19D   2.21
3           G15I   2.13
4           L24A    2.3
5           L24C      4

If you can, please state the reported protein stability index value of K10A .
1.75

// lookup protein stability index for T2H
2.21

Can you share its protein stability index? I mean this variant: R21F
2.01

Look up protein stability index: P8W
1.46

Requested read-out: protein stability index. Entry: F18R
2.15

Please report the recorded protein stability index for T2N .
2.28

Any idea what protein stability index was measured for N23K ?
2.17

What value of protein stability index has been recorded for this entry: L24Y
1.78

I would be grateful if you could share the reported protein stability index for R1A .
2.03
